Tested on: LOX IMVI
Assay Method Text: NCI tumour cell line growth inhibition, 48 h
The source made the active and inactive calls. No stated cut-off is given here; in the data, active = GI50 up to about 1.1 µM and inactive = higher.
Measured Parameter: GI50

GI50 lookup needed for CC(C)=CCC[C@](C)(O[C@@H]1O[C@H](CO)[C@@H](O)[C@H](O)[C@H]1O)[C@H]1CC[C@]2(C)[C@@H]1[C@H](O)C[C@@H]1[C@@]3(C)CC[C@H](O)C(C)(C)[C@@H]3[C@@H](O[C@@H]3O[C@H](CO)[C@@H](O)[C@H](O)[C@H]3O)C[C@]12C [GINSENOSIDE RG1] , thanks.
> 100 µM (inactive)

GI50 lookup needed for Cc1cc(C)c(S(=O)(=O)N(CCCCN)OCCCN)c(C)c1 , thanks.
15.2 µM (inactive)

GI50 lookup needed for COC1C(CN[N+](=O)CC2OC3OC(C)(C)OC3C2OC)OC2OC(C)(C)OC21 (configuration not stated) , thanks.
> 100 µM (inactive)

GI50 lookup needed for CC(=O)O[C@H]1CC[C@@]2(C)C(=CC[C@@H]3[C@@H]2CC[C@](C)(c2nnc(C)o2)[C@H]3CC#N)C1 , thanks.
> 100 µM (inactive)

GI50 lookup needed for COc1nc(=O)n(COC(CO)CN2C(=O)c3ccccc3C2=O)cc1Cc1cccc(OCc2ccccc2)c1 (configuration not stated) , thanks.
20.1 µM (inactive)

Items follow; give GI50 for each.
1. C[C@]12CC[C@@H]3c4ccc(O)cc4CC[C@H]3[C@@H]1C/C(=C\c1ccncc1)C2=O
2. COC(=O)CCC(NC(=S)N/N=C/c1ccccn1)C(=O)OC (configuration not stated)

1. 20.7 µM (inactive)
2. > 100 µM (inactive)

###

System: SF-268
Assay Method Text: NCI tumour cell line growth inhibition, 48 h
The source made the active and inactive calls. Rule as the data show it: active = GI50 up to about 1.1 µM and inactive = higher.
Parameter call: string, one of 1 = active, -1 = inactive

How did this test come out for Cc1ccc(C(=O)O)c(/C=C2\Cc3cc(C)cc(C)c3C2=O)c1 ?
-1

How did this test come out for O=C(CSc1nnc(Cc2ccccc2)o1)Nc1cccc(Cl)c1 ?
-1

How did this test come out for Cc1ccc([C@@H]2[C@@H](C(=O)c3ccccn3)[C@H](c3ccc(C)cc3)C[C@](O)(c3ccccn3)[C@H]2C(=O)c2ccccn2)cc1 ?
1

How did this test come out for O=C1CC(O)(c2ccccc2)C(c2ccccc2)=C1c1ccccc1 (stereo not given) ?
-1

How did this test come out for C=C1c2ccccc2Oc2nc3nc(N)c(C#N)c(N)c3c(N)c21 ?
-1

More entries:
How did this test come out for CNC(=S)N/N=C(\C)c1ccc(OC)cc1O ?
-1

How did this test come out for Clc1ccc(C(c2ccc(Cl)cc2)c2ccccn2)cc1 ?
-1

How did this test come out for Clc1sc(Cl)c2c1[C@@H](Cl)C[C@@H]2Br ?
-1

How did this test come out for O=C(Cn1cc(I)c(C(=O)NCC(O)CO)n1)NCC(O)CO (stereo not given) ?
-1

How did this test come out for CCOC(=O)/C=C(\C(=O)OCC)n1ccc(N)nc1=O ?
-1

###

For each entry below, report its GI50 value.
Tested on: SF-268
Assay Method Text: NCI tumour cell line growth inhibition, 48 h
Activity calls are given as the source filed them. Cut-off read from the data, not from the text of the source: active = GI50 up to about 1.1 µM and inactive = higher.

GI50 lookup needed for O=C1NC(Nc2cccc(Cl)c2)=N/C1=C\c1ccc(Cl)c(Cl)c1 , thanks.
4.94 µM (inactive)

Items follow; give GI50 for each.
1. COC(=O)C1C2C=CC(C2)N1S(=O)(=O)c1ccccc1 (stereo not given)
2. CC(=O)OCC1OC(n2c(C)c(/N=N/c3ccccc3)c(C)c(C#N)c2=S)C(OC(C)=O)C(OC(C)=O)C1OC(C)=O (stereo not given)
3. N#Cc1cccc(N2C(=O)c3ccc(C(=O)c4ccc5c(c4)C(=O)N(c4cccc(C#N)c4)C5=O)cc3C2=O)c1
4. Cc1ccc2nc(N/N=C/c3cccc(C)n3)cc(C)c2c1
5. Cn1cnc([N+](=O)[O-])c1Sc1nnc(-c2cccnc2)n1C
6. O=c1c(Cl)nsnc1Cl
7. CC1=C(c2cc(C(=O)Nc3nccs3)nc(NC#N)n2)Sc2ccccc2N1
8. COC(=O)[C@H](Cc1ccccc1)NC(=O)N1CCCN(C(=O)N[C@@H](Cc2ccccc2)C(=O)OC)CCCN(C(=O)N[C@@H](Cc2ccccc2)C(=O)OC)CCC1

["> 100 µM (inactive)", "57.1 µM (inactive)", "> 100 µM (inactive)", "17.2 µM (inactive)", "36.2 µM (inactive)", "26.4 µM (inactive)", "> 100 µM (inactive)", "17.5 µM (inactive)"]

Items follow; give GI50 for each.
1. Cc1ccc(-c2nc3n(c2/C=N\N=C(N)N)CCS3)cc1
2. CN(C)c1ccc(C(=C2C=CC(=[N+](C)C)C=C2)c2c(O)c(S(=O)(=O)[O-])cc3cc(S(=O)(=O)O)ccc23)cc1

["14.9 µM (inactive)", "> 100 µM (inactive)"]

Items follow; give GI50 for each.
1. C=CC(CCc1ccc(C(=O)OCC)cc1)c1c(N)nc(N)[nH]c1=O (stereo not given)
2. O=c1cc(-c2ccncc2)[nH]c2cc3c(cc12)OCO3
3. O=C1Oc2ccccc2C(=O)/C1=C/N1C(=O)CNC1=S
4. COc1ccc(C(=O)/C=C/c2cc(O)c(O)cc2F)c(OC)c1
5. CC1(C)O[C@@H](CC/C=C/CO)[C@H](CC/C=C/CO)O1

["> 100 µM (inactive)", "> 100 µM (inactive)", "> 100 µM (inactive)", "7.28 µM (inactive)", "> 100 µM (inactive)"]

Items follow; give GI50 for each.
1. COC(=O)[C@@H]1O[C@]12[C@@H](CO[Si](C)(C)C(C)(C)C)O[C@@H](n1cc(C)c(=O)[nH]c1=O)[C@@H]2O[Si](C)(C)C(C)(C)C
2. Cc1cccc(C)c1N1C(=O)C(=O)C(c2nc3ccccc3s2)/C(=N/NC(=O)NN)C1=O (stereo not given)
3. c1ccc(C(NC2=NCCO2)C2CC2)cc1 (stereo not given)
4. Cn1c(=O)cc(Nc2ccc(N)cc2)[nH]c1=O

["15.4 µM (inactive)", "> 100 µM (inactive)", "> 100 µM (inactive)", "> 100 µM (inactive)"]
